Numbers sourced from patent US20240116985A1.

# assayOverview: CHI Log D procedure
# Format: physicochemical
# conditionNotes: pH 7.4
Catalogue of CHI Log D readings, one per entry.

// worked examples, CHI Log D included
compound	CHI Log D
CC(=O)N1CCC[C@]12CC=CCCCC1(CCCC=CCCCCCC[C@@](C)(C(=O)N[C@@H](Cc3ccccc3)C(=O)N[C@@H](Cc3csc4ccccc34)C(=O)N[C@@H](CCC(N)=O)C(N)=O)NC(=O)[C@H](CC(N)=O)NC(=O)[C@H](Cc3ccsc3)NC(=O)[C@H](C)NC(=O)[C@H](C)NC(=O)[C@H](CCC(=O)O)NC(=O)[C@H](CC(=O)O)NC1=O)NC(=O)[C@H](C)NC(=O)[C@H](CC(=O)O)NC2=O (stereo partly drawn) [I-449]	1.998
CC(=O)N1CCC[C@]12CC=CCCCC1(CCCC=CCCCCCC[C@@](C)(C(=O)N[C@@H](Cc3ccccc3)C(=O)N[C@@H](Cc3c[nH]c4ccccc34)C(=O)NC(C)(C)C(N)=O)NC(=O)[C@H](C(C)C)NC(=O)[C@H](Cc3ccccc3)NC(=O)[C@H](C)NC(=O)[C@H](C)NC(=O)[C@H](CCC(=O)O)NC(=O)[C@H](CC(=O)O)NC1=O)NC(=O)[C@H](C)NC(=O)[C@H](CC(=O)O)NC2=O (stereo partly drawn) [I-134]	2.426

Documented CHI Log D of CC(=O)N1CCC[C@]12CC=CCCCC1(CCCC=CCCCCCC[C@@](C)(C(=O)N[C@@H](Cc3ccccc3)C(=O)N[C@@H](Cc3csc4ccccc34)C(=O)N[C@@H](Cc3c[nH]cn3)C(N)=O)NC(=O)[C@H](CCC(N)=O)NC(=O)[C@H](Cc3ccccc3)NC(=O)[C@H](C)NC(=O)[C@H](C)NC(=O)[C@H](CC(=O)O)NC(=O)[C@H](CC(=O)O)NC1=O)NC(=O)[C@H](CC(C)C)NC(=O)[C@H](CC(=O)O)NC2=O (stereo partly drawn) [I-561] : 2.437
